B1: POU domain, class 2, transcription factor 2, residues 200 to 269; numbered along this chain, P09086 (parent)
chain: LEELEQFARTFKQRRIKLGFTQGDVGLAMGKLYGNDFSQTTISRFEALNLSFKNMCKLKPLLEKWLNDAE

Variants of: B1
Test: abundance fitness (aPCA) (normalised: wild type 0, dead -1); higher = more abundant; growth selection in yeast, the domain comes from the species named
Details: Homo sapiens
The label depends only on abundance fitness: fulfilled if it is at least -0.1, not fulfilled if it is smaller.

{"MUTATION_ANNOTATION": "K53L", "CATEGORY_LABEL": "fulfilled"}
{"MUTATION_ANNOTATION": "K31L", "CATEGORY_LABEL": "fulfilled"}
{"MUTATION_ANNOTATION": "F45T", "CATEGORY_LABEL": "not fulfilled"}
{"MUTATION_ANNOTATION": "L32F", "CATEGORY_LABEL": "fulfilled"}
{"MUTATION_ANNOTATION": "G26W", "CATEGORY_LABEL": "fulfilled"}
{"MUTATION_ANNOTATION": "W65E", "CATEGORY_LABEL": "not fulfilled"}
{"MUTATION_ANNOTATION": "L27E", "CATEGORY_LABEL": "fulfilled"}
{"MUTATION_ANNOTATION": "Q13G", "CATEGORY_LABEL": "fulfilled"}
{"MUTATION_ANNOTATION": "L4R", "CATEGORY_LABEL": "not fulfilled"}
{"MUTATION_ANNOTATION": "K64V", "CATEGORY_LABEL": "fulfilled"}

Measured values drawn from the Human Domainome abundance scans (Beltran et al. 2025) for this set.
